Where do these numbers come from? They come from PubChem BioAssay (NCI).

system: RPMI-8226 leukemia; experiment: NCI tumour cell line growth inhibition, 48 h
Measured attribute: TGI

Output measured TGI for this item: O=C(CNc1cccc([N+](=O)[O-])c1)Nn1c(-c2ccccc2)nc2ccccc2c1=O
3.36 µM

***
Output measured TGI for this item: CC(=O)[CH-]C(=O)c1ccccc1.CC(=O)[CH-]C(=O)c1ccccc1.CC1(C)C2CCC1(C)C([O-])C2.CC1(C)C2CCC1(C)C([O-])C2.[Ti+4]
> 100 µM

Output measured TGI for this item: N[C@@H]1CCCC[C@H]1N.O=C([O-])C(=O)[O-].[Pt+4]
> 91.2 µM

---

The entries below come with measured TGI values attached.
test system: U251 CNS; experiment: NCI tumour cell line growth inhibition, 48 h

Answered cases to consult:
Output measured TGI for this item: CCCCCCCCCCCCCC(=O)CC(=O)c1c(O)cccc1O
> 100 µM

Output measured TGI for this item: COC(=O)N1CCc2c(nc(N(C)CCO)[nH]c2=O)C1
> 100 µM

Output measured TGI for this item: Cc1ccc(N=Nc2ccc(O)c(CN(C)C)c2)cc1C
> 100 µM

Output measured TGI for this item: O=C1c2ccccc2C(=O)[C@@]23O[C@@]12C1(Oc2cccc4cccc(c24)O1)[C@@H]1O[C@@H]1[C@@H]3O
> 47.6 µM

Output measured TGI for this item: CCN1CCN(c2ccc(Nc3ccnc4ccc5c(nnn5C)c34)cc2)CC1
19 µM

***
Output measured TGI for this item: COC(=O)C1(c2cc3ccccc3n2S(=O)(=O)c2ccccc2)CC2C=CC1NC2 (stereo not given)
2.75 µM

Output measured TGI for this item: COC(=O)C1=C(C(=O)ON)C2C=CC1(C(Cc1ccccc1)Nc1ccccc1)O2 (stereo not given)
27.2 µM

Output measured TGI for this item: Cc1ccc(NC(=O)CSc2nc(C)nc3c2sc(=S)n3-c2ccccc2)cc1
> 10 µM

Output measured TGI for this item: Cc1cc2nc(CCC(=O)O)c(=O)[nH]c2cc1C
> 100 µM

Output measured TGI for this item: O=C1C(N2CCNCC2)=C(Cl)C(=O)c2ncccc21
> 10 µM

---

test system: RXF 393 renal; assay: NCI tumour cell line growth inhibition, 48 h
The entries below come with measured TGI values attached.

Output measured TGI for this item: Cc1ccc(NN=NCCCCN)cc1
> 100 µM

***
Output measured TGI for this item: NC(=O)C(N)=O
> 100 µM

Output measured TGI for this item: N=C(N)N1CCC(N2CCOCC2)CC1
> 100 µM

Output measured TGI for this item: N#Cc1c(NN)nc(NN)c(C#N)c1-c1ccccc1
> 100 µM

Output measured TGI for this item: Oc1ccccc1/C=N/Nc1nc(N/N=C/c2ccccc2O)nc(N/N=C/c2ccccc2O)n1
> 100 µM

Output measured TGI for this item: O=C1NC(=O)C2C(=O)NC(=O)C1C2(c1ccccc1)c1cc[nH]c1 (stereo unspecified)
> 100 µM

Output measured TGI for this item: N#CC(C(=O)/C(=N/N)C(C#N)c1ccccc1)c1ccccc1 (stereo unspecified)
> 100 µM

Output measured TGI for this item: c1ccc2[nH]c(-c3ccc(NN=Nc4ccncc4)cc3)nc2c1
> 100 µM

Output measured TGI for this item: CCCCc1c2c(nc3c1CCCC3O)CCCC2 (stereo unspecified)
> 100 µM

Output measured TGI for this item: COc1cc(CNc2ccc3nc4n(c(=O)c3c2)CCCCC4)cc(OC)c1OC
> 100 µM

Output measured TGI for this item: N[C@@H]1CCCC[C@H]1N.O=C([O-])C(=O)[O-].[Pt+4]
> 39.8 µM

Output measured TGI for this item: COc1cc(C)c2c(=O)c3ccccc3n(C)c2c1
40.4 µM

Output measured TGI for this item: N#CCCCC[N+]12CN3CN(CN(C3)C1)C2
> 100 µM

Output measured TGI for this item: COc1cc(OC)c2c(=O)cc(-c3ccccc3F)[nH]c2c1
> 100 µM

---

The entries below come with measured TGI values attached.
tested on: LOX IMVI melanoma; test: NCI tumour cell line growth inhibition, 48 h

Answered cases to consult:
Output measured TGI for this item: C=C(CN1C(=O)[C@H]2CCCN2C(=O)c2ccccc21)c1ccc(C(=O)O)cc1
> 100 µM

Output measured TGI for this item: Oc1ccccc1C=NCc1ccco1
> 100 µM

***
Output measured TGI for this item: O=c1[nH]/c(=C/c2ccc(OCc3ccccc3)cn2)c(=O)[nH]/c1=C/c1ccc([N+](=O)[O-])cc1
> 100 µM

Output measured TGI for this item: O=C1NC(=O)C2C(=O)NC(=O)C1C2(c1ccccc1)c1cc[nH]c1 (configuration not stated)
> 100 µM

Output measured TGI for this item: O=c1cc2ccccc2nn1Cc1cccc(Cl)c1
> 100 µM

---

system: SF-295 CNS; assay: NCI tumour cell line growth inhibition, 48 h
Measured attribute: TGI

Output measured TGI for this item: Cc1ccc(N=Nc2ccc(O)c(CN(C)C)c2)cc1C
> 100 µM

***
Output measured TGI for this item: CSc1nc(Cl)c(Br)c(Sc2nc(N)nc3nc[nH]c23)n1
17.7 µM

Output measured TGI for this item: CS/C1=C(\c2ccc(C)cc2)N(c2ccccc2)C(=O)C(=O)N(c2ccccc2)/C(c2ccc(C)cc2)=C(/SC)SS1
> 100 µM

Output measured TGI for this item: COC(=O)Nc1nc2cc(OC)c(OC)cc2c(=O)[nH]1
37 µM

Output measured TGI for this item: N#CN=C(N)NC(=O)/C=C/C=C/c1ccc(Cl)cc1
> 100 µM

---

tested on: SK-MEL-5 melanoma; test: NCI tumour cell line growth inhibition, 48 h; in the data active means GI50 below about 0.43 µM; inactive means the rest
Hello, when you answer, please use one of the following outcomes: active, inactive

Recorded call for O=C1C(=O)c2ccccc2C(O)=C1CC=C(Br)Br ?
inactive

Recorded call for Fc1ccc2c(c1)c(-c1nc(-c3c[nH]c4ncccc34)cs1)cn2CCCN1CCCCC1 ?
inactive

Recorded call for O=C(CNc1ccc2c(c1)C(=O)c1ccccc1C2=O)Nc1ccc2c(c1)C(=O)c1ccccc1C2=O ?
active

Recorded call for CC(=O)[CH-]C(=O)c1ccccc1.CC(=O)[CH-]C(=O)c1ccccc1.CC(C)CCCC(C)[C@H]1CCC2[C@@H]3CC=C4C[C@@H]([O-])CC[C@]4(C)C3CC[C@@]21C.CC[O-].[Ti+4] (some centres undefined) ?
inactive

---

The entries below come with measured TGI values attached.
system: OVCAR-5 ovarian; experiment: NCI tumour cell line growth inhibition, 48 h

Answered cases to consult:
// fetch TGI for N/C(=C\c1ccc(OCc2ccccc2)c(OCc2ccccc2)c1[N+](=O)[O-])C(=O)O ; system: OVCAR-5 ovarian
> 100 µM

// fetch TGI for Cc1ccc(N=Nc2ccc(O)c(CN(C)C)c2)cc1C ; system: OVCAR-5 ovarian
> 100 µM

// fetch TGI for CCCCCCCCCc1cc(-c2ccc(C=O)s2)sc1-c1ccc(C=O)s1 ; system: OVCAR-5 ovarian
> 91.6 µM

// fetch TGI for Clc1ccc2c(c1)C1C(CO2)C(c2ccccc2)=NN1c1ccccc1 (stereo not given) ; system: OVCAR-5 ovarian
> 100 µM

With those in mind, consider the next compound.
// fetch TGI for [O-][n+]1onc2c1CCC(=N\O)/C2=N/Nc1ccccc1 ; system: OVCAR-5 ovarian
> 100 µM

---

The entries below come with measured TGI values attached.
system: EKVX NSCLC; assay: NCI tumour cell line growth inhibition, 48 h

Output measured TGI for this item: CC(=O)NC(C)(C)C1CC=C(C)CC1 (centres undefined)
> 100 µM

Output measured TGI for this item: C/C(=N/Nc1nc2ccccc2n1C)c1ccccn1
13.5 µM

Output measured TGI for this item: COC1CC2CCC(C)C(O)(O2)C(=O)C(=O)N2CCCCC2C(=O)OC(C(C)CC2CCC(O)C(OC)C2)CC(=O)C(C)C=C(C)C(O)C(OC)C(=O)C(C)CC(C)/C=C/C=C/C=C1C (centres undefined)
13.7 µM

Output measured TGI for this item: Cc1c(C)c2c(c(N)c1C#N)C(=O)N(Nc1ccccc1)C2=O
> 100 µM

Output measured TGI for this item: CN(C)c1ccc(/C=c2/c3ccccc3n3nc4ccccc4c23)cc1
> 100 µM

Output measured TGI for this item: CC(C)(C)c1nn(-c2ccccc2)c2c1C(=O)CSC(c1ccccc1Cl)N2 (centres undefined)
26.1 µM

Output measured TGI for this item: CC1(c2cccc3ccccc23)OC(=O)c2ccccc21 (centres undefined)
> 100 µM

Output measured TGI for this item: O=c1[nH]/c(=C/c2ccc(OCc3ccccc3)cn2)c(=O)[nH]/c1=C/c1ccc([N+](=O)[O-])cc1
> 100 µM

Output measured TGI for this item: N#Cc1nc2c(S(=O)(=O)c3ccccc3)c(N)n(Cc3cccnc3)c2nc1C#N
> 100 µM

Output measured TGI for this item: N#Cc1c(O)c(N=Nc2ccccc2F)c(=O)n2c1[nH]c1ccccc12
> 100 µM

***
Output measured TGI for this item: CC(C)(C)N1C(C(=O)c2ccccc2)C1c1ccccc1 (centres undefined)
> 100 µM

Output measured TGI for this item: O=C1c2ccccc2NC(=O)C2C1C(c1ccccc1)CC2(O)c1ccccc1 (centres undefined)
> 100 µM

Output measured TGI for this item: CCC(CO)Nc1nc(NCc2ccccc2O)c2ncn(C(C)C)c2n1 (centres undefined)
> 100 µM

Output measured TGI for this item: C=CC(=O)N1CCN(c2nc(=O)n(-c3c(C)ccnc3C(C)C)c3nc(-c4c(O)cccc4F)c(F)cc23)[C@@H](C)C1
> 100 µM
